Reported pEC50 values follow for various binders
- measurementTarget: T1, human ErbB3-Fc (R&D Systems) (human, UniProt P21860 20-643)
- T1 construct: Bought protein; also called wild-type ErbB3-Fc fusion; immobilized ErbB3; not shown: Fc part of the bought fusion protein; not described
- procedureSummary: ELISA on ErbB3-Fc, soluble monovalent Sab (Example 42)
Scale: pEC50 equals -log10([C]), with [C] in mol/L.

binder | propertyMeasured | quantitativeResult
2995-A07 (other) VH: EVQLLESGGGLVQPGGSLRLSCAASGFTFSSYWMHWVRQAPGKGLEWVAGISSGGAYTYYADSVKGRFTISRDNSKNTLYLQMNSLRAEDTAVYYCAKDNFILLNSWFDYWGQGTLVTVSS light: QPVLHQPPAMSSALGTTIRLTCTLRNDHDIGVYSVYWYQQRPGHPPRFLLRYFSQSDKSQGPQVPPRFSGSKDVARNRGYLSISELQPEDEAMYYCAMGARSSVTHVFGSGTQLTVLSQPKATPSVTLFPPSSEELQANKATLVCLMNDFYPGILTVTWKADGTPITQGVEMTTPSKQSNNKYAASSYLSLTPEQWRSRRSYSCQVMHEGSTVEKTVAPAECS | pEC50 | 10.66

Could you now look at the following binder, please?
Query: Give the reported pEC50 for this binder. 2995-E08 (other) VH: EVQLLESGGGLVQPGGSLRLSCAASGFTFSSYWMHWVRQAPGKGLEWVAGISSGGSYKYYADSVKGRFTISRDNSKNTLYLQMNSLRAEDTAVYYCAKDNFILLNSWFDYWGQGTLVTVSS light: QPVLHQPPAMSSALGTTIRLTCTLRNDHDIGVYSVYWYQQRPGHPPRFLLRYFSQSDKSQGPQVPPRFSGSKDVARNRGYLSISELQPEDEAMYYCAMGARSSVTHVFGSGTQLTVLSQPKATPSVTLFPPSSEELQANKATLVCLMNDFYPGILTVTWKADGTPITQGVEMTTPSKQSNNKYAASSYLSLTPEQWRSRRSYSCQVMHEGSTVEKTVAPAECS
Response: 10.41
